System: RXF 393
Measurement Protocol: NCI tumour cell line growth inhibition, 48 h
The source made the active and inactive calls. Rule as the data show it: active = GI50 up to about 1.1 µM and inactive = higher.
Assay Metric: GI50

Given C=Cc1c(C)c(OC)cc2c1Oc1ccc(OC)c(C)c1CC2 , state its recorded GI50.
> 100 µM (inactive)

Given O=S(=O)(Nc1nccs1)c1ccc([As](=O)(O)O)cc1 , state its recorded GI50.
> 100 µM (inactive)

Given O=C(NCCNCCO)N/N=C/c1ccccc1 , state its recorded GI50.
> 100 µM (inactive)

Given Cc1cc(N(CCC#N)CCC#N)ccc1/C=N/NC(=O)c1cc(Cl)ccc1O , state its recorded GI50.
> 100 µM (inactive)

Given CCN1CCC(O)(/C=C/c2ccccc2C)C(C(=O)/C=C/c2ccccc2C)C1 (stereo not drawn) , state its recorded GI50.
1.92 µM (inactive)

Given CCNC1C2(CCCCC2)NC(=O)C12CCCCC2 (stereo not drawn) , state its recorded GI50.
> 100 µM (inactive)

Given CCOC(=O)NN(C(=O)OCC)C(C(=O)c1ccc(Cl)cc1)=C1NCCN1 , state its recorded GI50.
> 100 µM (inactive)

Given CC(Oc1ccc(Cl)cc1Cl)C(=O)NN1C(=O)CSC1c1ccc(Cl)cc1 (stereo not drawn) , state its recorded GI50.
27 µM (inactive)

Given O=c1cccccc1NCCNc1cccccc1=O , state its recorded GI50.
68.2 µM (inactive)

Given CC1CCC(O)/C=C/C(=O)OC(C)C(O)/C=C/C(=O)O1 (stereo not drawn) , state its recorded GI50.
> 62.1 µM (inactive)

Given N#CC(c1ccccc1)N(CCCCCCN(C(=O)c1ccccc1)C(C#N)c1ccccc1)C(=O)c1ccccc1 (stereo not drawn) , state its recorded GI50.
52.1 µM (inactive)

Given CC(=O)OC1OC(c2ccoc2)C[C@@]12C1CCC3O[C@]3(C)[C@]1(C)C[C@H](OC(C)=O)[C@H]2C (stereo partly drawn) , state its recorded GI50.
> 75 µM (inactive)

Given O/N=C(\C=N\O)c1ccc2c(c1)Sc1ccccc1O2 , state its recorded GI50.
15.8 µM (inactive)

Given CCOC(=O)C1=C(Cl)c2cccnc2C1=O , state its recorded GI50.
> 100 µM (inactive)

Given Cc1cn2c(/C=N/NC(=N)N)c(-c3cccc([N+](=O)[O-])c3)nc2s1 , state its recorded GI50.
1.15 µM (inactive)

Given O=[N+]([O-])c1ccc(/C=N/C2CCCCC2)cc1 , state its recorded GI50.
> 100 µM (inactive)

Given CC(C)(C)OC(=O)NCC(c1c[nH]c2cc(Br)ccc12)c1c[nH]c2cc(Br)ccc12 , state its recorded GI50.
17.6 µM (inactive)

Given Cc1csc(=S)n1OC(=O)NC1CCCCC1 , state its recorded GI50.
> 100 µM (inactive)

Given COc1ccc(-c2onc(-c3c(C)cc(C)cc3C)c2C2=NCCCN2)cc1 , state its recorded GI50.
47.3 µM (inactive)

Given CSc1ccc(NC(=O)Nc2cc(C)ccn2)cc1 , state its recorded GI50.
> 100 µM (inactive)

Given O=C(NC1C=Nc2ccccc2NC1=O)c1ccccc1Cl (stereo not drawn) , state its recorded GI50.
13 µM (inactive)

Given CCC(C)(O)c1cn(-c2cccc(S(=O)(=O)O)c2)nn1 (stereo not drawn) , state its recorded GI50.
> 100 µM (inactive)

Given CCCCCCCCCCCCC(CCCCCCCCCCCC)OP(=O)(O)O , state its recorded GI50.
> 100 µM (inactive)
